# testDescription: Ratio of AUC in brain to plasma in Kunming mouse at 1 mg/kg, iv measured upto 240 mins by LC-MS/MS analysis
# Format: ADME, organism-based
# statedConditions: read-out: BPR
endpoint: Kp at 4 h

>>> testresult("CN1C(=O)CNC(=O)[C@H](N[C@@H](Cc2ccc(O)cc2)C(=O)O)CCCC/C=C\\C[C@@H](C(=O)N2CCC[C@H]2C(=O)N[C@@H](CCC(N)=O)C(=O)N[C@@H](CCCNC(=N)N)C(=O)N[C@@H](Cc2ccccc2)C(N)=O)NC(=O)[C@@H]1Cc1ccccc1")
1.35

###

# testDescription: Metabolic stability in mouse brain homogenate assessed as degradation half life at 10 mM measured upto 480 mins by RP-HPLC analysis
# Assay type: ADME, tissue-based
half-life at 10000 µM by entry:
endpoint: half-life at 10000 µM (h)

>>> testresult("CN1C(=O)CNC(=O)[C@H](N[C@@H](Cc2ccc(O)cc2)C(=O)O)CCCC/C=C\\CC[C@@H](C(=O)N2CCC[C@H]2C(=O)N[C@@H](CCC(N)=O)C(=O)N[C@@H](CCCNC(=N)N)C(=O)N[C@@H](Cc2ccccc2)C(N)=O)NC(=O)[C@@H]1Cc1ccccc1")
1.95
>>> testresult("CN1C(=O)CNC(=O)[C@H](N[C@@H](Cc2ccc(O)cc2)C(=O)O)CCCC/C=C/CC[C@@H](C(=O)N2CCC[C@H]2C(=O)N[C@@H](CCC(N)=O)C(=O)N[C@@H](CCCNC(=N)N)C(=O)N[C@@H](Cc2ccccc2)C(N)=O)NC(=O)[C@@H]1Cc1ccccc1")
2.26
